# tested target: Muscarinic acetylcholine receptor M1 (Homo sapiens, UniProt P11229)
# Sequence (P11229 whole entry): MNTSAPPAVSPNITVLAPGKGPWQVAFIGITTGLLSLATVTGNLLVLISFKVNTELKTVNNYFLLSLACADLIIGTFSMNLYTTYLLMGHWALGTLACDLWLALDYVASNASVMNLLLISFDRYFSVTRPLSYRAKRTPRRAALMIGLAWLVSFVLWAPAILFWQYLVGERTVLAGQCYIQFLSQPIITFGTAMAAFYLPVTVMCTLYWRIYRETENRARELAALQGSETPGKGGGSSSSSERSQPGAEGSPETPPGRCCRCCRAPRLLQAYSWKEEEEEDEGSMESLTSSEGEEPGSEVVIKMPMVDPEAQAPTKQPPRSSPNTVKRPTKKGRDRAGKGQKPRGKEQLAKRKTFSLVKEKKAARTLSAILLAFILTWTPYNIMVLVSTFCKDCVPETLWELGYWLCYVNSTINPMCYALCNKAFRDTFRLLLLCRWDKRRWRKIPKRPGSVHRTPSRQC
# assay info: Agonist activity at muscarinic M1 receptor (unknown origin) expressed in CHO cells
# reported pEC50; entries follow
Scale note: pEC50 = -log10(concentration in M).

# annotated cases, reported pEC50 shown
| molecule | pEC50 |
| --- | --- |
| CN1CC=C(C2=Nc3cc(Cl)ccc3Nc3ccccc32)CC1 | 6.46 |
| CN1CC=C(C2=Nc3cc(Cl)ccc3Nc3ccc(F)cc32)CC1 | 5.33 |

[ask] Recorded pEC50 for Clc1ccc2c(c1)N=C(N1CCNCC1)c1ccccc1N2 [N-DESMETHYLCLOZAPINE] , please?
[reply] 7.32
